- Study system: human PCSK9 / human LDLR EGFa domain (Homo sapiens, UniProt Q8NBP7)
- Sequence (Q8NBP7 153-692): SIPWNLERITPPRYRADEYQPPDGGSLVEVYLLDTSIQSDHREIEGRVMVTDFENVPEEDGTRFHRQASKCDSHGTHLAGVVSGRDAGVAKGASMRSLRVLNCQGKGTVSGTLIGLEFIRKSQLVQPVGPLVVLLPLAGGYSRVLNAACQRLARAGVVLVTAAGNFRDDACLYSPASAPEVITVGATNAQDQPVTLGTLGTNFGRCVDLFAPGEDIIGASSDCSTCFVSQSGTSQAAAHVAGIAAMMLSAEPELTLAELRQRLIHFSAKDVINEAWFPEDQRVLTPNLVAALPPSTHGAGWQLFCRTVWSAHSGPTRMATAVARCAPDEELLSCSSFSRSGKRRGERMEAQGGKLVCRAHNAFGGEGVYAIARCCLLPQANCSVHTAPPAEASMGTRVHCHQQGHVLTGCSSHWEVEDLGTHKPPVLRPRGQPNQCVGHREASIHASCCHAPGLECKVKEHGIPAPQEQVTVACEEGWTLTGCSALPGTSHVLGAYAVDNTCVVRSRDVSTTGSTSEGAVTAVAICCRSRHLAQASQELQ
- Method notes: TR-FRET assay of inhibition of the PCSK9-LDLR protein-protein interaction
- Condition summary: 20 nM human PCSK9, 20 nM human LDLR EGFa domain, 2 hours room temperature
Numbered stars: 1 amine (or outer) side, 2 acyl side, 3 side chain; on linkers, the order of the positions; unused ones are H or OH. Square brackets hold non-standard residues; d marks the D form. Peptide text beside a SMILES is read from it. Trp(5-F) = N[C@@H](Cc1c[nH]c2ccc(F)cc12)C(=O)O; X1 = O=C(CCSCc1cccc(CSCCN[*:1])c1)[*:2]; 1Nal = N[C@@H](Cc1cccc2ccccc12)C(=O)O; 2Nal = N[C@@H](Cc1ccc2ccccc2c1)C(=O)O; Tiq1c(1S) = O=C(O)[C@H]1NCCc2ccccc21; NMeY = CN[C@@H](Cc1ccc(O)cc1)C(=O)O; αMeP = C[C@@]1(C(=O)O)CCCN1; Aib = CC(C)(N)C(=O)O
Quick list: IC50 per entry.

A selection of reference data follows.
Compound	IC50
C[C@@H]1NC(=O)CCSCc2cccc(c2)CSCCNC(=O)[C@@H]2CCCN2C(=O)[C@H](Cc2ccc3ccccc3c2)NC(=O)[C@H](C)NC(=O)[C@@H]2CCCN2C(=O)[C@H](Cc2c[nH]c3ccc(F)cc23)NC(=O)[C@H](Cc2cccc3ccccc23)NC(=O)[C@@H](C)NC1=O [Compound 079] (cyclo([1Nal][Trp(5-F)]PA[2Nal]P[X1]A[dA]))	0.1 to 1 µM
C[C@@H]1NC(=O)CCSCc2cccc(c2)CSCCNC(=O)[C@@H]2CCCN2C(=O)[C@H](Cc2ccc(O)cc2)NC(=O)[C@H](C)NC(=O)[C@@H]2c3ccccc3CCN2C(=O)[C@H](Cc2c[nH]c3ccc(F)cc23)NC(=O)[C@H](Cc2c[nH]c3ccccc23)NC(=O)[C@@H](C)NC1=O [Compound 092] (cyclo(AYP[X1]A[dA]W[Trp(5-F)][Tiq1c(1S)]))	21 to 50 µM

Proceeding to the next compound to report its IC50.
q: Value lookup for IC50; key = CN1C(=O)[C@H](Cc2cnc[nH]2)NC(=O)C(C)(C)NC(=O)[C@H](Cc2c[nH]c3ccc(F)cc23)NC(=O)[C@H](Cc2c[nH]c3ccc(F)cc23)NC(=O)CNC(=O)[C@H](CCCCN)NC(=O)CCSCc2cccc(c2)CSCCNC(=O)[C@]2(C)CCCN2C(=O)[C@@H]1Cc1ccc(O)cc1 [Compound 111] (cyclo([Aib]H[NMeY][αMeP][X1]KG[Trp(5-F)][Trp(5-F)]))
a: 1 to 12.1 µM

###

- Study system: PCSK9 (Homo sapiens, UniProt Q8NBP7)
- Construct: biotin (biotinylated)
- Method notes: PCSK9 Alexa FRET Standard assay (displacement of AlexaFluor647 tagged cyclic peptide Reagent A)
- Format: binding
- Condition summary: 0.5 nM PCSK9, 20 nM AF cyclic peptide Reagent A
- Method: A solution containing 1 nM biotinylated PCSK9+2.5 nM Lance Streptavidin Europium (Strep-Eu) was made in 50 mM HEPES pH 7.4, 0.15 M NaCl, 5 mM CaCl2), 0.01% BSA, and 0.01% Surfactant P20. […] The reaction was incubated at room temperature for at least two hours prior to fluorescence measurements using an Envision Multilabel Reader. IC50 values were determined by fitting data to a sigmoidal dose-response curve using nonlinear regression. […]
Numbered stars: 1 amine (or outer) side, 2 acyl side, 3 side chain; on linkers, the order of the positions; unused ones are H or OH. Bridge positions count the residues as written; N and C are the ends. Square brackets hold non-standard residues; d marks the D form. Peptide text beside a SMILES is read from it. Phe(4-CF3) = N[C@@H](Cc1ccc(C(F)(F)F)cc1)C(=O)O; Trp(5-F) = N[C@@H](Cc1c[nH]c2ccc(F)cc12)C(=O)O; mXylylene = c1cc(C[*:1])cc(C[*:2])c1; Mpa = O=C(O)CCS
Value kind: IC50

Molecule	Study system	IC50
C[C@@H]1NC(=O)CCSCc2cccc(c2)CSC[C@@H](C(N)=O)NC(=O)[C@@H]2CCCN2C(=O)[C@H](Cc2ccc(C(F)(F)F)cc2)NC(=O)[C@H](C)NC(=O)[C@@H]2CCCN2C(=O)[C@H](Cc2c[nH]c3ccc(F)cc23)NC(=O)[C@H](Cc2c[nH]c3ccc(F)cc23)NC(=O)[C@@H](C)NC1=O [Compound 084] ([Mpa]A[dA][Trp(5-F)][Trp(5-F)]PA[Phe(4-CF3)]PC-NH2; linker 1-10 via mXylylene)	PCSK9 (Homo sapiens, UniProt Q8NBP7)	1 to 100 nM

q: What measured IC50 is associated with COc1ccc(C[C@@H]2NC(=O)[C@H]([C@@H](C)OC)NC(=O)[C@H]3CCCN3C(=O)[C@H]3Cc4cn(c5ccc(F)cc45)Cc4cn(nn4)-c4cc(cc(c4)CSCCC(=O)N[C@@H](C)C(=O)N[C@H](C)C(=O)N[C@@H](Cc4c[nH]c5ccc(F)cc45)C(=O)N3)CSCCNC(=O)[C@]3(C)CCCN3C2=O)cc1 on PCSK9 (Homo sapiens, UniProt Q8NBP7)?
a: 1 to 100 nM
